READOUT NAME: melting point

query: Looking for the measured melting point of CN1CCN(c2ccc(C(=O)O)cc2S(=O)(=O)Nc2ccccc2)CC1 , can you help?
result: 252 to 253 °C

query: Looking for the measured melting point of O=C(O)c1ccc2oc3ccncc3c(=O)c2c1 , can you help?
result: > 300 °C

# evaluate next
query: Looking for the measured melting point of O=C(c1ccccc1)N(c1ccccc1)c1ccc(OCCN2CCOCC2)cc1 , can you help?
result: 81.5 to 84.5 °C

====

# melting point listing for each entry below

As a guide, the following entries are already answered.
query: Looking for the measured melting point of CCCc1nc2ccccc2n1CCC1CCN(c2ccccc2-c2nnn[nH]2)CC1 , can you help?
result: 231 to 233 °C

query: Looking for the measured melting point of C(=Cc1ccc(-c2nnn[nH]2)cc1)c1ccc(OCc2ccc3ccccc3n2)cc1 , can you help?
result: 241 to 243 °C

# evaluate next
query: Looking for the measured melting point of NS(=O)(=O)CCCSc1ccc2nc(Cl)cn2n1 , can you help?
result: 117 to 118 °C
